method-notes: coupled detection enzyme interference, dose response, artefact control for MgcRacGAP inhibitor project, biochemical, coupled enzyme counter-screen (AID 624351);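 further: signal is the ADP detection kit reading of free GDP without any GAP enzyme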
condition-description: ADP Hunter coupled enzyme counter-screen, fluorescence, no MgcRacGAP; series mostly up to 80 µM
Out of some 2,400 compounds screened, about 1,400 (58%) were called active.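 How the source made its calls: active means inhibition of 30% or more at any tested dose; inconclusive means primary hits over the limit that were never retested; inactive means the rest.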 The set was probably picked from earlier hits. The list shows a part of the results.
Tick one outcome: True = active, False = inactive

{"molecule": "CCOc1ccc(CN2CCN(Cc3c[nH]c4ccccc34)CC2)cc1", "class-assignment": "False"}

Inquiry: Record lookup: outcome of this test for CN(c1ccccc1)c1ccc(/C=N/N2CCOCC2)cc1 ?
Reply text: True

Inquiry: Dear all, I need the recorded test outcome for CCN(Cc1ccccc1)c1ccc(/C=N/N2CCOCC2)cc1 , thank you.
Reply text: True

Inquiry: Dear all, I need the recorded test outcome for CCN(CC)c1ccc(/C=N/N2CCN(Cc3ccccc3)CC2)cc1 , thank you.
Reply text: True

Inquiry: Tell me the recorded outcome of this test for CCOc1cc(CN2CCN(C(=O)CC(C)C)CC2)ccc1OC .
Reply text: False

Inquiry: Lab log entry: CC(CN1CCN(Cc2ccccc2)CC1)c1ccccc1 (stereo unspecified) — outcome as called in the assay?
Reply text: False

* * *

method-notes: coupled detection enzyme interference, dose response, artefact control for MgcRacGAP inhibitor project, biochemical, coupled enzyme counter-screen (AID 624351);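 further: signal is the ADP detection kit reading of free GDP without any GAP enzyme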
condition-description: ADP Hunter coupled enzyme counter-screen, fluorescence, no MgcRacGAP; series mostly up to 80 µM
The campaign covered roughly 2,400 compounds. About 1,400 (58%) were called active.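 How the source made its calls: active means inhibition of 30% or more at any tested dose; inconclusive means primary hits over the limit that were never retested; inactive means the rest.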 The set was probably picked from earlier hits. Some of the results follow.
Mark one answer only. Choices: yes (active), no (inactive)

Answered cases to consult:
{"test-smiles": "CCOCCCNC(=O)CN1CCN(c2ccc(F)cc2)CC1", "class-assignment": "no"}
{"test-smiles": "CCCCc1nc2ccccc2c(NC(=O)CN2CCN(C)CC2)c1CCC", "class-assignment": "no"}
{"test-smiles": "COc1cc(CNCCNC(=O)c2nonc2N)ccc1OCc1ccc(Cl)cc1", "class-assignment": "no"}
{"test-smiles": "COc1ccc(Br)cc1CNc1ccc(O)cc1", "class-assignment": "yes"}
{"test-smiles": "COc1cc(/C=N/N=C(\\N)c2nonc2N)ccc1O", "class-assignment": "yes"}
{"test-smiles": "O=C(N/N=C/c1ccc(O)cc1)NC12CC3CC(CC(C3)C1)C2", "class-assignment": "yes"}
{"test-smiles": "CSC1=NN(c2ccccc2)CN(c2ccccc2)N1C", "class-assignment": "yes"}
{"test-smiles": "O=C(Nc1cc(Br)c(O)c(Br)c1)c1cccc(NC(=O)c2ccco2)c1", "class-assignment": "yes"}
{"test-smiles": "OCCNCCSc1nc(C2CCCCC2)n(-c2ccccc2Cl)n1", "class-assignment": "no"}
{"test-smiles": "Oc1ccc(/C=N/N=C/c2ccc(O)cc2)cc1", "class-assignment": "yes"}

Inquiry: # lookup: test call for Oc1ccc(NCc2ccccc2OCc2ccccc2F)cc1
Reply text: no

Inquiry: Lab log entry: O=C(/C=C\c1ccco1)c1ccc(NC(=O)c2ccco2)cc1 — outcome as called in the assay?
Reply text: no

* * *

method-notes: coupled detection enzyme interference, dose response, artefact control for MgcRacGAP inhibitor project, biochemical, coupled enzyme counter-screen (AID 624351);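 further: signal is the ADP detection kit reading of free GDP without any GAP enzyme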
condition-description: ADP Hunter coupled enzyme counter-screen, fluorescence, no MgcRacGAP; series mostly up to 80 µM
Hit rate of the full screen: of about 2,400 compounds, about 1,400 (58%) were called active.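 How the source made its calls: active means inhibition of 30% or more at any tested dose; inconclusive means primary hits over the limit that were never retested; inactive means the rest.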 So high a share suggests a set chosen from earlier hits. This is one part of the list.
Parameter call: string, one of active, inactive

Solved cases (6 shown):
{"compound": "N=C(N)c1ccc(N=Nc2c(O)ccc3c2[nH]c2ccccc23)cc1", "class-assignment": "active"}
{"compound": "CN(C)CCCC1Sc2ccccc2Sc2ccccc21 (stereo unspecified)", "class-assignment": "inactive"}
{"compound": "N#CC1=C(S)N(c2ccccc2)C2(CCCCC2)NC1=O", "class-assignment": "inactive"}
{"compound": "COc1nc(Nc2ccc(O)cc2)nc(OC(C(F)(F)F)C(F)(F)F)n1", "class-assignment": "active"}
{"compound": "O=C(c1ccc(Cl)c(S(=O)(=O)N2CCCCCC2)c1)N1CCN(c2ccc(O)cc2)CC1", "class-assignment": "active"}
{"compound": "Cc1ccc(-c2cc(C(=O)N3CCN(c4ccc(O)cc4)CC3)c3ccccc3n2)cc1", "class-assignment": "active"}

Inquiry: Test call for this compound, please: O=c1c2ccccc2n2c(=S)[nH]nc2n1-c1ccccc1
Reply text: active

Inquiry: Just curious, what result did CCOCCCn1c(=O)c2ccccc2n2c(=S)[nH]nc12 get here?
Reply text: active

Source of measurements: PubChem BioAssay AID624351
